systemName: human phosphodiesterase 5 (PDE 5) (Homo sapiens (Human))
pIC50: −log10 of the molar value.
Returns Fulfilled if the recorded pIC50 is greater than or equal to 8, and Not fulfilled otherwise.

[
  {
    "cpdSmiles": "Cc1ccc(Cn2nc(-c3nnc4c(n3)NC(=O)C4(C)C)c3ccc(C)nc32)c(F)c1",
    "classLabel": "Fulfilled"
  },
  {
    "cpdSmiles": "Cc1nc2c(cc1F)c(-c1nnc3c(n1)NC(=O)C3(C)C)nn2Cc1c(F)cccc1F",
    "classLabel": "Not fulfilled"
  },
  {
    "cpdSmiles": "Cc1ccc2c(-c3nnc4c(n3)NC(=O)C4(C)C)nn(Cc3c(F)cccc3F)c2n1",
    "classLabel": "Not fulfilled"
  },
  {
    "cpdSmiles": "Cc1nc2c(cc1F)c(-c1nnc3c(n1)[N-]C(=O)C3(C)C)nn2Cc1cccc(F)c1F.[Na+]",
    "classLabel": "Fulfilled"
  },
  {
    "cpdSmiles": "Cc1ccc2c(-c3nnc4c(n3)NC(=O)C4(C)C)nn(Cc3ccc(C)c(F)c3F)c2n1",
    "classLabel": "Fulfilled"
  }
]

Request: Entry `Cc1ccc2c(-c3nnc4c(n3)NC(=O)C4(C)C)nn(Cc3ccc(Cl)cc3F)c2n1` : is its pIC50 no less than 8?
Result: Fulfilled

Where these numbers come from: patent US9605008B2
